Form field: melting point (one value per entry).

In the examples that follow, each entry is paired with its recorded melting point.
Cc1cccc(C)c1CNc1c(NC(C)(C)C)c(=O)c1=O: 265 to 267 °C
COCC(=O)Nc1cccc(NC(=O)COC)c1: 110 to 111 °C
COC(=O)c1ccc(Cl)cc1NC(=O)Cc1cccnc1: 85 to 87 °C

Okay, now this compound:
[Q] I would be grateful if you could share the reported melting point for Clc1nccnc1Oc1ccc2c(c1)OCO2 .
[A] 87 to 88 °C

====

Form field: melting point (one value per entry).

In the examples that follow, each entry is paired with its recorded melting point.
O=C(c1cccs1)c1cnc2[nH]ncc2c1NC1CC1: 268 to 270 °C
CCn1c(=O)c2c(nc(/C=C/c3cc(OC)c(OC(=O)c4ccccc4)c(OC)c3)n2C)n(CC)c1=O: 196 °C
Nc1c(Br)cc(OC(F)F)cc1[N+](=O)[O-]: 60.5 to 61.5 °C
COc1ccc(CCNC(=O)C(=O)NCCCCCCNC(=O)OC(C)(C)C)cc1OC1CCCC1: 135 to 137 °C
CC(C)(C)OC(=O)Nc1cc(OCc2ccccc2)cc(OCc2ccccc2)c1: 96 to 98 °C

Okay, now this compound:
[Q] I would be grateful if you could share the reported melting point for Clc1ccc(N=c2ccn3ccccc3c2)cc1 .
[A] 183 to 184 °C
